Please go through the items and note down their IC50.
- System: DLD-1 BRCA2−/− cells
- ASSAY_NAME: Homologous recombination synthetic lethal inhibition of proliferation, DLD-1 BRCA2-/- (Cell Titre Glo 3D)
- Assay type: cell-based
- STATED_CONDITIONS: Homo sapiens, DLD-1, first proliferation column (c5); DLD-1 BRCA2-/-; read-out: POLQ PD Prolif Lumin (converted)
Please give a number only; it is taken to be in nM.

Just so you know, measured IC50 for `Cc1ccnc(Cn2c(-c3ccc(C(=O)N4CC(F)C4)cc3Cl)nc3c(OC4(C)CC4)ncnc32)c1` came out at 501

Just so you know, measured IC50 for `Cc1cncc(Cn2c(-c3ccc(OCCN4CCNCC4)cc3Cl)nc3c(OC4(C)CC4)ncnc32)c1` came out at 1000

Just so you know, measured IC50 for `COc1cccc(Cn2c(-c3ccc(CC(N)=O)cc3Cl)nc3c(OC4(C)CC4)ncnc32)c1` came out at 631

Just so you know, measured IC50 for `Cc1ccnc(Cn2c(-c3ccc(OCC(=O)N4CCC[C@H](F)C4)cc3Cl)nc3c(OC4(C)CC4)ncnc32)c1` came out at 158

Just so you know, measured IC50 for CC(CCOc1ccc(-c2nc3c(OC4(C)CC4)ncnc3n2Cc2cccc(C(C)(F)F)c2)c(Cl)c1)C(=O)O (racemic) [Example T544] came out at 501

Just so you know, measured IC50 for `CC1(Oc2ncnc3c2nc(-c2ccc(OCCC(=O)NS(C)(=O)=O)cc2Cl)n3Cc2cccc(Cl)c2)CC1` came out at 3980

Just so you know, measured IC50 for `Cc1ccnc(Cn2c(-c3ccc(O[C@H]4CNC(=O)C4)cc3Cl)nc3c(OC4(C)CC4)ncnc32)c1` came out at 398

Just so you know, measured IC50 for `Cc1ccnc(Cn2c(-c3ccc(OC[C@H]4CCO4)cc3Cl)nc3c(OC4(C)CC4)ncnc32)c1` came out at 251

Just so you know, measured IC50 for `Cc1ccnc(Cn2c(-c3ccc(CC(=O)NCC(F)F)cc3Cl)nc3c(OC4(C)CC4)ncnc32)c1` came out at 100

Just so you know, measured IC50 for `Cc1ccnc(Cn2c(-c3ccc(C(=O)NCCO)cc3Cl)nc3c(OC4(C)CC4)ncnc32)c1` came out at 794

Just so you know, measured IC50 for `CNC(=O)CNc1ccc(-c2nc3c(OC4(C)CC4)ncnc3n2Cc2cc(C)ccn2)c(Cl)c1` came out at 794

Just so you know, measured IC50 for `Cc1ccnc(Cn2c(-c3ccc(N4CCC5(CNC5)C4)cc3Cl)nc3c(OC4(C)CC4)ncnc32)c1` came out at 2000

Just so you know, measured IC50 for `Cc1ccnc(Cn2c(-c3ccc(OCC(=O)NCC(F)F)cc3Cl)nc3c(OC4(C)CC4)ncnc32)c1` came out at 316

Just so you know, measured IC50 for `Cc1ccnc(Cn2c(-c3ccc(OCC4COC4)cc3Cl)nc3c(OC4(C)CC4)ncnc32)c1` came out at 251
